experiment-notes: inhibitors of insulin promoter-driven GFP, primary screen, imaging, TRM-6 cells, eGFP reporter, cell count (AID 1273)
condition-info: at 2 µM, reporter expression induced with tamoxifen; stronger effect = higher value
The campaign covered roughly 130,000 compounds. About 1,200 (0.92%) were called active. Only a selection was taken, and actives are over-represented in it overall.
Listed compounds paired with reported inhibition

smiles-record: CCN(CC)CCNC(=O)c1sc2ncn(CC(=O)Nc3ccc(C)c(Cl)c3)c(=O)c2c1C
inhibition: -14.3% (inactive)
//
smiles-record: O=C(COc1cccc2ccccc12)Nc1cc(S(=O)(=O)N2CCOCC2)ccc1N1CCOCC1
inhibition: 11.1% (inactive)
//
smiles-record: O=[N+]([O-])c1ccc(N2CCN(S(=O)(=O)c3ccc4ccccc4c3)CC2)cc1NCc1ccco1
inhibition: -18.5% (inactive)
//
smiles-record: O=C(c1ccccc1)N1CCN(c2ccc([N+](=O)[O-])c(NCc3ccco3)c2)CC1
inhibition: -9.68% (inactive)
//
smiles-record: O=[N+]([O-])c1ccc(N2CCNCC2)cc1NCc1cccnc1
inhibition: 66.7% (active)

* * *

experiment-notes: inhibitors of insulin promoter-driven GFP, primary screen, imaging, TRM-6 cells, eGFP reporter, cell count (AID 1273)
condition-info: at 2 µM, reporter expression induced with tamoxifen; stronger effect = higher value
Hit rate of the full screen: of about 130,000 compounds, about 1,200 (0.92%) were called active. What follows is part of a selection rich in actives, with near analogues and random picks from the rest.
Give rule met when the value for inhibition is at least 80%. Give rule not met when it is less.

smiles-record: Cc1ccc(NC(=O)CCN2CCc3ccccc3C2)cc1
category: rule not met
--
smiles-record: Cc1ccc(Nc2nnc(SCc3ccccc3)s2)cc1
category: rule met
--
smiles-record: COc1cc(NC(=O)c2cccs2)ccc1NC(=O)c1ccccc1Cl
category: rule not met
--
smiles-record: C/C(Cn1nnc2ccccc21)=N\OC(=O)c1cc(F)c(F)cc1Cl
category: rule not met

* * *

experiment-notes: inhibitors of insulin promoter-driven GFP, primary screen, imaging, TRM-6 cells, eGFP reporter, cell count (AID 1273)
condition-info: at 2 µM, reporter expression induced with tamoxifen; stronger effect = higher value
Out of some 130,000 compounds screened, about 1,200 (0.92%) were called active. The sample as a whole holds a higher share of actives than the screen did.
measured-property: inhibition (%)

compound: COc1cccc(NC(=O)CS(=O)(=O)c2cn(CC(=O)N3CCOCC3)c3ccccc23)c1
observed-result: -16.7
--
compound: Cc1ccc(N/C=C/C(=O)c2ccccc2)cc1C
observed-result: 7.69
--
compound: COCC(=O)Nc1cc(C(=O)OC)cc(C(=O)OC)c1
observed-result: 12.8
--
compound: N/C(=N\OC(=O)N1c2ccccc2Sc2ccccc21)c1ccc(Br)cc1
observed-result: 79.3
--
compound: CN(C)CCNC(=O)C(C(=O)c1ccccc1)n1ccccc1=O (stereo not drawn)
observed-result: 86.7
--
compound: CN(C)CCNC(=O)/C(=C/c1cccc([N+](=O)[O-])c1)NC(=O)c1ccccc1
observed-result: -14.3
--
compound: N/C(=N\OC(=O)Cc1ccccc1[N+](=O)[O-])c1ccc(Br)cc1
observed-result: 7.69
--
compound: Cc1nc([N+](=O)[O-])c(NCCCO)n1Cc1ccccc1
observed-result: 50
--
compound: Cc1cccc(C)c1NC(=S)N(Cc1cccnc1)Cc1ccccc1Cl
observed-result: -60
--
compound: COCC(=O)Nc1ccc(Br)cc1
observed-result: 73.3
--
compound: CN(C)/C=C(/C(=O)c1ccc(F)cc1)S(=O)(=O)c1ccc(F)cc1
observed-result: 50
--
compound: Cc1cc(NC(=O)CN2C(=O)NC(CCc3ccccc3)C2=O)no1 (stereo not drawn)
observed-result: 60
--
compound: Cc1cccc(Cn2c(N3CCN(c4ccccc4)CC3)nc3c2c(=O)n(C)c(=O)n3C)c1
observed-result: -28.1
--
compound: Cc1ccc(OC(=O)CCC(=O)Nc2ccc(Br)cc2)cc1
observed-result: -66.7
--
compound: O=C(O)C1C2CC2CN1C(=O)c1ccc(Cl)cc1Cl (stereo not drawn)
observed-result: -5.56
--
compound: CSCC(NS(=O)(=O)c1ccc(C)cc1)C(=O)O (stereo not drawn)
observed-result: -387
--
compound: O=C(Nc1ccc(N2CCN(C(=O)C3CC3)CC2)cc1)c1cccs1
observed-result: 36.8
--
compound: O=C(Nc1ccc(-c2ccc3nncn3n2)cc1)C1CCCCC1
observed-result: -25
--
compound: O=C(CCN1CCN(C/C=C/c2ccccc2)CC1)Nc1cccc(F)c1
observed-result: -57.1
--
compound: COCCNC(=S)N1CCC(NC(=O)C23CC4CC(CC(C4)C2)C3)CC1
observed-result: 21.4
--
compound: Cc1cccc(C)c1NC(=O)C1(N(C(=O)c2ccccn2)c2ccc(O)cc2)CCCCC1
observed-result: 6.67
--
compound: CN1CCN(C(=O)CCc2ncc(C(F)(F)F)cc2Cl)CC1
observed-result: 9.09
--
compound: O=C(O)Cc1ccc(NCc2ccccc2Cl)cc1
observed-result: 0

* * *

experiment-notes: inhibitors of insulin promoter-driven GFP, primary screen, imaging, TRM-6 cells (human fetal islet line), eGFP reporter, cell count (AID 1273)
condition-info: at 2 µM, reporter expression induced with tamoxifen; stronger effect = higher value
The whole screen tested about 130,000 compounds, of which about 1,200 (0.92%) were called active. This is one part of a sample in which actives are shown more often than they occur.
# inhibition per record follows
measured-property: inhibition

compound: COC(=O)Nc1c(C)n(C)n(-c2ccccc2)c1=O
observed-result: 13.9% (inactive)
//
compound: COC(=O)C1=C(C)N(c2ccc(Br)cc2)C(=O)/C1=C\c1ccco1
observed-result: 25.6% (inactive)
//
compound: CCCOc1ccc(NC(=O)C2CCCNC2=O)cc1 (stereo not given)
observed-result: 5.71% (inactive)
//
compound: CCN(/N=C/c1ccc(N(C)C)cc1)c1nc2ccccc2[nH]1
observed-result: 86.7% (active)
//
compound: O=C(CCN1C(=O)c2ccccc2C1=O)NCCCn1ccnc1
observed-result: -16.7% (inactive)
//
compound: Cc1nc2ccccc2c(-c2ccccc2)c1C(=O)c1ccccc1
observed-result: 27.5% (inactive)
//
compound: CCCCn1nc(C(=O)Nc2ccc(S(=O)(=O)Nc3ncccn3)cc2)c2ccccc2c1=O
observed-result: 25% (inactive)
//
compound: NC(=O)Cc1nc2scc(-c3ccc(Cl)cc3)c2c(=O)[nH]1
observed-result: 5.88% (inactive)
//
compound: COCCNC(=O)NC(=O)COC(=O)C1(c2ccc(Cl)cc2)CC1
observed-result: 38.9% (inactive)
//
compound: C/C(=N\NC(=O)C(N)=O)c1ccc2c(c1)OCCO2
observed-result: -41.2% (inactive)
//
compound: C=C(C)Cn1c(C)cc(C)c(S(=O)(=O)c2ccccc2C)c1=O
observed-result: 78.4% (active)
//
compound: COc1cc(C(=O)N[C@@H](C)C(=O)NCc2ccco2)cc(OC)c1OC
observed-result: 33.3% (inactive)
//
compound: Cc1ccc(Cl)c(NC(=O)CN2CCN(C=O)CC2)c1
observed-result: -71.4% (inactive)
//
compound: Cc1ccc(O)c(-c2cc(C(=O)NCc3ccccc3)[nH]n2)c1
observed-result: 7.14% (inactive)
//
compound: CCCc1nc2scc(-c3ccc(C)cc3)c2c(=O)n1N
observed-result: 81.5% (active)
//
compound: Cc1cccc(NC(=O)CN2C(=O)c3ccccc3C2=O)c1C
observed-result: -28.6% (inactive)
//
compound: N/C(=N\OC(=O)COc1ccc([N+](=O)[O-])cc1)c1ccc(Br)cc1
observed-result: -81.2% (inactive)
//
compound: CCCCCN1CC(O)=C(c2ccccc2)C1=N
observed-result: 9.59% (inactive)
//
compound: CCCCCN1CC(O)=C(c2nc(-c3ccc(Cl)cc3)cs2)C1=N
observed-result: 81.1% (active)
//
compound: COc1ccc(N2C(=O)/C(=C\c3ccco3)N=C2SCC(N)=O)cc1Cl
observed-result: 91.7% (active)
//
compound: O=C(CNCc1ccc(Cl)cc1)Nc1cccc(C(=O)O)c1
observed-result: 38.5% (inactive)
//
compound: Fc1ccccc1/C=C1\CCCC2=C1Nc1ncnn1C2c1ccccc1F (stereo not given)
observed-result: 86.1% (active)
//
compound: O=[N+]([O-])c1ccccc1NCc1ccccc1Cl
observed-result: 33.3% (inactive)
//
compound: Cc1c(Nc2nc3ccccc3nc2NS(=O)(=O)c2cccs2)c(=O)n(-c2ccccc2)n1C
observed-result: 75% (active)
//
compound: CCN(CC)Cc1c(C(=O)OC)nnn1-c1nonc1N
observed-result: 72.4% (active)
//
compound: Nc1ccc(-c2nnc(-c3ccc(-c4ccccc4)cc3)o2)cc1
observed-result: 46.7% (inactive)
//
compound: Cc1ccc(S(=O)(=O)NC(=O)COc2ccccc2C)cc1
observed-result: 81.2% (active)
//
compound: CCOC(=O)c1sc(NC(=O)CSc2nc(O)c(Cc3ccccc3)c(=O)[nH]2)nc1C
observed-result: -50% (inactive)
//
compound: COC(=O)C(NS(=O)(=O)c1ccc(F)cc1)c1ccccc1 (stereo not given)
observed-result: -16.3% (inactive)
//
compound: CCCCc1nnc(NC(=O)CSc2nc(N)cc(=O)[nH]2)s1
observed-result: 12.5% (inactive)
//
compound: Cc1ccc(S(=O)(=O)N(C)C)cc1NC(=O)COC(=O)C1COc2ccccc2O1 (stereo not given)
observed-result: -44.4% (inactive)
//
compound: Cc1ccc(O)c(CCc2ccccc2)n1
observed-result: 91.9% (active)
//
compound: CCc1nnc(NS(=O)(=O)c2ccc(NC(=S)NC(=O)c3cccs3)cc2)s1
observed-result: -11.1% (inactive)
//
compound: O=C(CCN1C(=O)c2ccncc2C1=O)Nc1cc(F)ccc1F
observed-result: 25% (inactive)
//
compound: Cc1ccc(CC(=O)Nc2cccc(C#N)c2)cc1
observed-result: -16.7% (inactive)
